biological target: T1, full length recombinant human 2N4R tau (human, UniProt P10636 1-758); test: SPR MCK, IgG on Protein A, tau in flow at 100 µL/min
T1 construct: bought from rPeptide; pHrodo Red maleimide-labelled where it stands in uptake assays; also called tau1-441; full length tau
T1 sequence (P10636 other isoform, or with tags, fused parts or gaps limits assumed): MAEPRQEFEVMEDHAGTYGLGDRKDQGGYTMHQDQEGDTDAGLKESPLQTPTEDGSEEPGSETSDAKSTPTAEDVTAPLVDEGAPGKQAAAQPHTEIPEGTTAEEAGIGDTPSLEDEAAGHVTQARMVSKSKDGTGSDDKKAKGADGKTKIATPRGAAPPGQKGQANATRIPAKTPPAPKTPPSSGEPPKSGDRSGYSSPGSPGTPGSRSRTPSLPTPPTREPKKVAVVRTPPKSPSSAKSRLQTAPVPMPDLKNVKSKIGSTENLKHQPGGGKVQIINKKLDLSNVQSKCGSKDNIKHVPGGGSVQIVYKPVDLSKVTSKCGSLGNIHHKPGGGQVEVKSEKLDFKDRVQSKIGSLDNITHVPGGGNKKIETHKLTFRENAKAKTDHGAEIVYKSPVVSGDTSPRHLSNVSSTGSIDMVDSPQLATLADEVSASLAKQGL
quantity_kind: koff (s⁻¹)
// units = s⁻¹; emit number, no label

#44_VH4VK4_H06/pVL (antibody, V domains shown, also called Clone VH4_H06; #44_VH4_H06) VH: QVQLQESGPGLVKPSETLSLTCTVSGIDLSSYAMAWVRQAPGKGLEWIGVIDAAGHTFYASWVKGRFTISKDTSKTTVDLQMTSLTAEDTATYFCARDSGTFDPWGQGTLVTVSS VL: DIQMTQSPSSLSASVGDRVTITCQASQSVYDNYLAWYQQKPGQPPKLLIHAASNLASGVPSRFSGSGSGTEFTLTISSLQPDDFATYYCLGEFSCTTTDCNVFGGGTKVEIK: 0.00524
#44_VH4VK4_H01/pVL (antibody, V domains shown, also called Clone VH4_H01; #44_VH4_H01) VH: QVQLQESGPGLVKPSETLSLTCTVSGIDLSSYAMAWVRQAPGKGLEWIGCIDRRGGTFYASWVKGRFTISKDTSKTTVDLQMTSLTAEDTATYFCARDVGSFDVWGQGTLVTVSS VL: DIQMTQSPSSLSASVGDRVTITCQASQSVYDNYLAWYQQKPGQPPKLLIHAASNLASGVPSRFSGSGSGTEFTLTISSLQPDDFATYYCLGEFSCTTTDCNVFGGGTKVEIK: 0.00957

GET /values?readout=koff&item= #44_VH4VK4 humanised hIgG1 (antibody, V domains shown, also called VH4Vκ4; pVH/pVL) VH: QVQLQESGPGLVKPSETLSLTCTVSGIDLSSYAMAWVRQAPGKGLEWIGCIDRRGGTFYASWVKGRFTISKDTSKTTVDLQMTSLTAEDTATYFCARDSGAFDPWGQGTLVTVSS VL: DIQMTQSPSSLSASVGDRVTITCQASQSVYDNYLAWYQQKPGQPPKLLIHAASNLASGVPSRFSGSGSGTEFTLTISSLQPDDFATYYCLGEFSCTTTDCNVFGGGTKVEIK
0.0147
